- ASSAY OVERVIEW: Pharmacokinetic analysis of tail vein administration in mice
- SETUP CONDITIONS: female, ICR, mouse, plasma, iv, 5 mg/kg
compounds and their reported clearance
Numbers only here, please. The scale is L/h/kg.

{"COMPOUND": "CC(=O)[C@H]1CC[C@H]2[C@@H]3CC[C@H]4C[C@H](O[N+](=O)[O-])CC[C@]4(C)[C@H]3CC[C@]12C", "RESULT NUMBER": 11.8}

Param item = CC(=O)[C@H]1CC[C@H]2[C@@H]3CC[C@H]4C[C@H](O)CC[C@]4(C)[C@H]3CC[C@]12C [Allopregnanolone, 5α-pregnan-3α-ol-20-one, reference compound] ; retrieve measured clearance.
13.1

---

- ASSAY OVERVIEW: Pharmacokinetic analysis of oral administration to male rats
- Format: in vivo
- SETUP CONDITIONS: male, SD, rat, plasma, po, 12 mg/kg, oral gavage 12 mg/kg, 3 h, individual rats 1-7, read-out: Blood drug concentration
MEASUREMENT KIND: concentration at 3 h (ng/mL)
Numbers only here, please. The scale is ng/mL.

Param item = CC(=O)[C@H]1CC[C@H]2[C@@H]3CC[C@H]4C[C@H](O)CC[C@]4(C)[C@H]3CC[C@]12C [Allopregnanolone, 5α-pregnan-3α-ol-20-one, reference compound] ; retrieve measured concentration at 3 h.
0

---

- ASSAY OVERVIEW: Pharmacokinetic analysis of oral administration to male rats
- Format: in vivo
- SETUP CONDITIONS: male, SD, rat, plasma, po, 12 mg/kg, oral gavage 12 mg/kg, 8 h, mean of 7 rats, read-out: Blood drug concentration, Mean value
MEASUREMENT KIND: concentration at 8 h

{"COMPOUND": "CC(=O)[C@H]1CC[C@H]2[C@@H]3CC[C@H]4C[C@H](O)CC[C@]4(C)[C@H]3CC[C@]12C [Allopregnanolone, 5α-pregnan-3α-ol-20-one, reference compound]", "concentration at 8 h": "0 ng/mL"}

Now let's try a different one.
Param item = CC(=O)[C@H]1CC[C@H]2[C@@H]3CC[C@H]4C[C@H](O[N+](=O)[O-])CC[C@]4(C)[C@H]3CC[C@]12C ; retrieve measured concentration at 8 h.
348 ng/mL

---

- ASSAY OVERVIEW: Pharmacokinetic analysis of oral administration to male rats
- Type: in vivo
- SETUP CONDITIONS: male, SD, rat, plasma, po, 12 mg/kg, oral gavage 12 mg/kg, 12 h, individual rats 1-7, read-out: Blood drug concentration
MEASUREMENT KIND: concentration at 12 h (ng/mL)
Numbers only here, please. The scale is ng/mL.

Param item = CC(=O)[C@H]1CC[C@H]2[C@@H]3CC[C@H]4C[C@H](O)CC[C@]4(C)[C@H]3CC[C@]12C [Allopregnanolone, 5α-pregnan-3α-ol-20-one, reference compound] ; retrieve measured concentration at 12 h.
0

---

- ASSAY OVERVIEW: Pharmacokinetic analysis of tail vein administration in female rats
- SETUP CONDITIONS: female, SD, rat, plasma, iv, 3 mg/kg
MEASUREMENT KIND: clearance (mL/min/kg)
Numbers only here, please. The scale is mL/min/kg.

{"MOLECULE": "CC(=O)[C@H]1CC[C@H]2[C@@H]3CC[C@H]4C[C@H](O)CC[C@]4(C)[C@H]3CC[C@]12C [Allopregnanolone, 5α-pregnan-3α-ol-20-one, reference compound]", "RESULT NUMBER": 109}

Param item = CC(=O)[C@H]1CC[C@H]2[C@@H]3CC[C@H]4C[C@H](O[N+](=O)[O-])CC[C@]4(C)[C@H]3CC[C@]12C ; retrieve measured clearance.
87.8

Data origin, for the record: patent US20260109731A1
